Molecular target: EZH2 (reconstituted recombinant PRC2 containing full length EZH2, SUZ12, EED, RBAP46/48) (Homo sapiens, UniProt Q15910)
Construct: reconstituted recombinant PRC2 (containing full length EZH2, SUZ12, EED, RBAP46/48)
Sequence (Q15910 whole entry): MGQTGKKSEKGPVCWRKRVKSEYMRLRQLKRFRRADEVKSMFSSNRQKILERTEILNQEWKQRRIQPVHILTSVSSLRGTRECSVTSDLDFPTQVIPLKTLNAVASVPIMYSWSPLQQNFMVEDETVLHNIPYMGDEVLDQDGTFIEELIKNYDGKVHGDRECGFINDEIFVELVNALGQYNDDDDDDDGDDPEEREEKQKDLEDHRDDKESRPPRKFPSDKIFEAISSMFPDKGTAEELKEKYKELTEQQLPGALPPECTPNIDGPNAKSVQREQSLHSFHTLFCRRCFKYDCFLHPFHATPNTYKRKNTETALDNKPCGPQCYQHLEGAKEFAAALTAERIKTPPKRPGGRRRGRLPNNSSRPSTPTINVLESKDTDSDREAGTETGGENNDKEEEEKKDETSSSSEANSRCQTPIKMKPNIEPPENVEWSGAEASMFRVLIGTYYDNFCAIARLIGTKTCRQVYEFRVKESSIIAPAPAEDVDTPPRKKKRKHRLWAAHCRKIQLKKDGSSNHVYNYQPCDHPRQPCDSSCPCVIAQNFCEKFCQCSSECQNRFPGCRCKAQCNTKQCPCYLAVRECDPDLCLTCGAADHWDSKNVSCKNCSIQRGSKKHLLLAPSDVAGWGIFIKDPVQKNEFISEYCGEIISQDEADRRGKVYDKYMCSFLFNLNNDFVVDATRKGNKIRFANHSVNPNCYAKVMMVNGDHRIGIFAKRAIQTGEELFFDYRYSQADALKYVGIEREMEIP
Sequence (Q15022 whole entry partner): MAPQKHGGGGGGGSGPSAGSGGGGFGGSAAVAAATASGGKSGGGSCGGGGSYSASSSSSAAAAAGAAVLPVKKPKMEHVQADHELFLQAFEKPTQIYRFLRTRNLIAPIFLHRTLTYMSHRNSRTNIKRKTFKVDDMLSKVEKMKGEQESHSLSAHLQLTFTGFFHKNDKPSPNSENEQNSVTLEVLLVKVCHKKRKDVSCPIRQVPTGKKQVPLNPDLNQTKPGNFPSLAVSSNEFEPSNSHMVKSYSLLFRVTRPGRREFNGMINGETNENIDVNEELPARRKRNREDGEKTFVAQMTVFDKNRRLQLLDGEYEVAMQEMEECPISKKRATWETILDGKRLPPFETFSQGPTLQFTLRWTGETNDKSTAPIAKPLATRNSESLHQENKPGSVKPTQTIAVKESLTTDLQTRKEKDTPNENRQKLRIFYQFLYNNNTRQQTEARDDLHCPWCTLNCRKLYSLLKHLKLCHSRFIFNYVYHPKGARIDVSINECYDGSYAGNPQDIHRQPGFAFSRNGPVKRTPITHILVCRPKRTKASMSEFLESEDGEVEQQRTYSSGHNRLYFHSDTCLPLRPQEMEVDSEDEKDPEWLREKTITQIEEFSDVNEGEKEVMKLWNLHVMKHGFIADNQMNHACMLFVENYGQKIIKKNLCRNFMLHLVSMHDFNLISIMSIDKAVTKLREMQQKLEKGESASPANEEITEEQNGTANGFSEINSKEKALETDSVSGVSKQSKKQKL
Sequence (O75530 whole entry partner): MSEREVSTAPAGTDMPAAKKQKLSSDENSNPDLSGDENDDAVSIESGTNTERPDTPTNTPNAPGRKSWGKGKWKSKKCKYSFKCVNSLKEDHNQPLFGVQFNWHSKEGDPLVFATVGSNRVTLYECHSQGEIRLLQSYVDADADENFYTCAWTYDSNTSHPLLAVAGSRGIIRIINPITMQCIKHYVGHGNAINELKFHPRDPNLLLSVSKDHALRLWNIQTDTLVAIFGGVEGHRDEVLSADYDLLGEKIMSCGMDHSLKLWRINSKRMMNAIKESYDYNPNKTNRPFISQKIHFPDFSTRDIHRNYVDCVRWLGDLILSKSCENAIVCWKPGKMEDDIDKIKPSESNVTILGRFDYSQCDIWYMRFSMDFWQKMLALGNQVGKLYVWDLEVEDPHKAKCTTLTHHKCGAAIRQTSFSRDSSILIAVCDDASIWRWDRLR
Sequence (Q09028 whole entry partner): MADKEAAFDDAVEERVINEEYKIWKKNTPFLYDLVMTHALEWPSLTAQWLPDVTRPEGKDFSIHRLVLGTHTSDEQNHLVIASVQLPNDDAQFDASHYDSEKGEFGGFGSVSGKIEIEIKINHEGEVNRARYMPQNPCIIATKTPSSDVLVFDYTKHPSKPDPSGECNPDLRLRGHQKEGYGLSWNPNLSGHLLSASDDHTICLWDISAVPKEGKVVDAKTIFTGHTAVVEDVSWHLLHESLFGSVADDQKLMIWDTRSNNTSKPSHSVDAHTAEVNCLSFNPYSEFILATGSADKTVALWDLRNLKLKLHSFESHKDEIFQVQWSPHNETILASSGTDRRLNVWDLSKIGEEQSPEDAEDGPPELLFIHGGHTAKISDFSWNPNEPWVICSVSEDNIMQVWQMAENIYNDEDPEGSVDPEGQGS
Assay: radiometric EZH2 HMT enzymatic assay, 384-well Flashplate, 10-point dose titrations
Format: biochemical
Conditions: read-out: IC50
No end group written: not given here.
Assign labels as follows, please: met for IC50 below 40 µM; not met for IC50 equal to or exceeding 40 µM.

Reference set (2 entries):
GKAPRKQLASAKKAAATPRTG [SQ010]    not met
GKAPRKQLARRKWWFNYPQNG [SQ037]    met

Now for another entry.
is_below(IC50, 40 µM) for GKAPRKQLAPKAATKNARATS [SQ026] ?
met

---

Biological target: EZH2 (reconstituted recombinant PRC2 containing full length EZH2, SUZ12, EED, RBAP46/48) (Homo sapiens, UniProt Q15910)
Construct: reconstituted recombinant PRC2 (containing full length EZH2, SUZ12, EED, RBAP46/48)
Assay: radiometric EZH2 HMT enzymatic assay, 384-well Flashplate, 10-point dose titrations
Type: biochemical
Conditions: Figure 5, high throughput radiometric assay, SQ037 versus native and mutated peptides; value printed in the picture without unit; read-out: IC50
No end group written: not given here.
ASSAY METRIC: pIC50
Lab note — pIC50 values are minus log10 of concentrations in M.

Requested field: pIC50. Item: GKAPRKQLARRKWWFNYPQNG [SQ037]
5.09
